Quick list: Ki per entry.
study system: Solute carrier family 22 member 2 (Rattus norvegicus, UniProt Q9R0W2)
Sequence (Q9R0W2 whole entry): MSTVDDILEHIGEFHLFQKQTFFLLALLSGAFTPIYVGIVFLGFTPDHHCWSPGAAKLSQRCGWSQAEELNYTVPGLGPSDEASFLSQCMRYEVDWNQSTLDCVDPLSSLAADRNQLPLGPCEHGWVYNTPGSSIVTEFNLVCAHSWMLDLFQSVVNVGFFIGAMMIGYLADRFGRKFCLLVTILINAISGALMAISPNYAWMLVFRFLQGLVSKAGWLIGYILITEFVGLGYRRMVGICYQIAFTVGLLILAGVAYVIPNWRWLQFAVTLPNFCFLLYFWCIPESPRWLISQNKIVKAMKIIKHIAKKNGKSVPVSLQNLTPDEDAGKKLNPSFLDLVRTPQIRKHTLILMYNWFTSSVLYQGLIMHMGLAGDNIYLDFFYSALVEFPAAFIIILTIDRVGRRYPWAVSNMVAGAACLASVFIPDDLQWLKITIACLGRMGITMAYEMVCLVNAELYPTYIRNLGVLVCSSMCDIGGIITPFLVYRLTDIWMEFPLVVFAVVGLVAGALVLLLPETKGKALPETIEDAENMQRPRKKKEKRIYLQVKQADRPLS
experimental protocol: TP_TRANSPORTER: inhibition of Noradrenaline uptake in OCT2-expressing HEK293 cells
Type: functional, cell-based
Just the number please, in nM, no unit attached.

{"compound smiles": "CC(C)N1/C(=C\\c2cc[n+](C(C)C)c3ccccc23)C=Cc2ccccc21", "reported result": 13}

Now examine the next entry.
# query: Ki of entry `C[C@]12C[C@H](O)[C@H]3[C@@H](CCC4=CC(=O)CC[C@@]43C)[C@@H]1CC[C@@H]2C(=O)CO` 460
